- study-target: human 5HT1A-serotonergic receptor (Homo sapiens)
- Construct: cell membranes used
- Sequence (P08908 1-422): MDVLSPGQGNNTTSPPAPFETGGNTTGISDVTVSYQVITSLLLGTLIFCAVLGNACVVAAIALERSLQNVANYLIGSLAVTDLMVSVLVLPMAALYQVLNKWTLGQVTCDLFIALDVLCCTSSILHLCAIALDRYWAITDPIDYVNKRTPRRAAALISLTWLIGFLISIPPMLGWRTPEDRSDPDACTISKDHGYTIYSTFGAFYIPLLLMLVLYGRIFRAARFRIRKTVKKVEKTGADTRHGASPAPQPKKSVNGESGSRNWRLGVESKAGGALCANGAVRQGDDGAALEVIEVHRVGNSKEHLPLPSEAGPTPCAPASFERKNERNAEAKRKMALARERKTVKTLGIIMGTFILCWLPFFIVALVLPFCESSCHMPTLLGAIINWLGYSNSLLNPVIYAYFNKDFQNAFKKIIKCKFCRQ
- test-name: Radioligand binding to recombinant 5-HT1A receptors
- conditions: [3H]8-OH-DPAT 1 nM, membranes of HeLa cells with human 5-HT1A receptor; Ki from IC50 by Cheng & Prusoff; read-out: Binding affinity for 5HT1A receptors, Ki
outcome-measure: pKi
Just so you know, pKi here is -log10 of the concentration in molar units; reply with that number alone.

{"columns": ["compound", "outcome-measure", "test-value"],
 "data": [
  ["O=C(C1CCC(O)CC1)N1c2ccccc2CCC1CN1CCN(c2cccc3[nH]ccc23)CC1 (stereo not shown)", "pKi", 7.52],
  ["Cc1ccccc1NC(=O)N1c2ccccc2CCC1CN1CCN(c2cccc3[nH]ccc23)CC1 (stereo not shown) [Example 69A]", "pKi", 8.14],
  ["O=C(C1CCCCC1)N1c2ccc(F)cc2CCC1CN1CCN(c2ccccc2OCC(F)(F)F)CC1 (stereo not shown)", "pKi", 7.97]
]}

The record that follows has no pKi shown yet.
Request: Reported pKi for human 5HT1A-serotonergic receptor (Homo sapiens), given O=C(C1CCCC1)N1c2ccccc2CCC1CN1CCN(c2cccc3[nH]ccc23)CC1 (stereo not shown) ?
Response: 8.27

---

- System: anaesthetised rats
- test-name: Effects on rhythmic bladder-voiding contractions induced by bladder filling in anaesthetised rats
- Format: in vivo, rat
- conditions: intravenous administration, urethane-anaesthetised rats
- Method: Female Sprague-Dawley rats weighing 225-275 g (Crl: CDo Br, Charles River Italia) were used. […] The activity on rhythmic bladder voiding contractions was evaluated according to the method of Dray (Dray J., Pharmacol. Methods, 13:157, 1985), with some modifications as in Guarneri (Guarneri, Pharmacol. Res. 27:173, 1993). […]
outcome-measure: ED10 min (extrapolated dose inducing 10 minutes of disappearance of the contractions) (mg/kg)
The reply should be a number in mg/kg, with the unit left off.

Below: 4 compounds and their reported ED10 min (extrapolated dose inducing 10 minutes of disappearance of the contractions).
{"columns": ["compound", "study-target", "test-value"],
 "data": [
  ["COc1ccccc1N1CCN(CCC2CCc3ccccc3N2C(=O)C2CCCCC2)CC1 (stereo not drawn)", "anaesthetised rats", 0.08],
  ["CCN(CC)CC#CCOC(=O)C(O)(c1ccccc1)C1CCCCC1 (stereo not drawn) [Oxybutynin, oxybutynin, reference compound]", "anaesthetised rats", 7.77],
  ["O=C(C1CCCCC1)N1c2ccccc2CCC1CN1CCN(c2cccc3[nH]ccc23)CC1 (racemic) [Example 1]", "anaesthetised rats", 0.107],
  ["COc1ccccc1N1CCN(CC2CCc3ccccc3N2C(=O)C2CCCCC2)CC1 (stereo not drawn)", "anaesthetised rats", 0.383]
]}

Request: Data request, read-out ED10 min (extrapolated dose inducing 10 minutes of disappearance of the contractions), for O=C(C1CCCCC1)N1c2ccccc2CCC1CN1CCN(c2cccc3[nH]ccc23)CC1 (single isomer, unassigned; (+)) [Example (+)-1]
Response: 0.072
